Species: Homo sapiens
Assay: Ratio of IC50 for Mer (unknown origin) to IC50 for Axl (unknown origin)
reported endpoint: Ratio IC50

I. CC(C)n1cc(C(=O)Nc2ccc(Oc3ncnc4c3CCN(C3CCN(CC5CC5)CC3)C4)c(F)c2)c(=O)n(-c2ccc(F)cc2)c1=O
II. CC(C)n1cc(C(=O)Nc2ccc(Oc3ncnc4c3CN(C)CC4)c(F)c2)c(=O)n(-c2ccc(F)cc2)c1=O
III. CC(C)n1cc(C(=O)Nc2ccc(Oc3ncnc4c3CCN(CC(=O)N3CCC3)C4)c(F)c2)c(=O)n(-c2ccc(F)cc2)c1=O
// ranking: key=Ratio IC50, reverse=True Please, when replying, give the labels in the order that was requested. III, I, II
(III: 14, I: 9.7, II: 4.2)

====

Molecular target: Tyrosine-protein kinase receptor UFO (Mus musculus)
Sequence (Q00993 whole entry): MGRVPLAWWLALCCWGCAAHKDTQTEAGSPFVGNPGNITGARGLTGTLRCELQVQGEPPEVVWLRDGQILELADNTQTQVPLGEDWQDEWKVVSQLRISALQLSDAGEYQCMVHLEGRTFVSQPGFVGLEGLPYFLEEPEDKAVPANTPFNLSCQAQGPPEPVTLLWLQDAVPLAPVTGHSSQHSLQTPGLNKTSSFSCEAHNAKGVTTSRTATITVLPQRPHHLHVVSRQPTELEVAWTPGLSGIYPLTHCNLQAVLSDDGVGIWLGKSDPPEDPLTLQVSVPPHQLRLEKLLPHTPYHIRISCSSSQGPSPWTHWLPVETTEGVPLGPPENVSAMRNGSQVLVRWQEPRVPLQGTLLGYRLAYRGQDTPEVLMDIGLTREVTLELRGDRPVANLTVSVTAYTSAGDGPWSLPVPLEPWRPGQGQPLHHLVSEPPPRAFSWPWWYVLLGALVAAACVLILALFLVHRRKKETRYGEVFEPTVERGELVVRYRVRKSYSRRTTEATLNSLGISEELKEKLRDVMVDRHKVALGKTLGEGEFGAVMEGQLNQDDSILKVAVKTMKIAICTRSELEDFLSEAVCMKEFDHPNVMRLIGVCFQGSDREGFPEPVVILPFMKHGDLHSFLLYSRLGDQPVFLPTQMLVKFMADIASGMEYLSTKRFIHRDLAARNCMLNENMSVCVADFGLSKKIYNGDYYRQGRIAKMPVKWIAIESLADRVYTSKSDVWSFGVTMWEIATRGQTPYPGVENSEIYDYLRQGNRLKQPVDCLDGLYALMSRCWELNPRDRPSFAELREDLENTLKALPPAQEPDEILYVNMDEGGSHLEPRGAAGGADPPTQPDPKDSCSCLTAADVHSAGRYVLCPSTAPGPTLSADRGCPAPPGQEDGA
Assay: Inhibition of Axl in mouse BaF3 cells
reported endpoint: IC50 (nM)

Before answering, review these 2 worked examples.
# structure notation, IC50 / nM
measured = [
    ("CC(C)n1cc(C(=O)Nc2ccc(Oc3ncnc4c3CCN(C(=O)CN3CCOCC3)C4)c(F)c2)c(=O)n(-c2ccc(F)cc2)c1=O", 130),
    ("CC(C)n1cc(C(=O)Nc2ccc(Oc3ncnc4c3CN(CC3CCN(C)CC3)C4)c(F)c2)c(=O)n(-c2ccc(F)cc2)c1=O", 32),
]

A. CN1CCC(CN2CCc3c(ncnc3Oc3ccc(NC(=O)c4cn(CCF)c(=O)n(-c5ccc(F)cc5)c4=O)cc3F)C2)CC1
B. CC(C)n1cc(C(=O)Nc2ccc(Oc3ncnc4c3CCN(C(=O)CC3CCN(C)CC3)C4)c(F)c2)c(=O)n(-c2ccc(F)cc2)c1=O
C. CC(C)n1cc(C(=O)Nc2ccc(Oc3ncnc4c3CN(C(=O)CCN3CCCC3)C4)c(F)c2)c(=O)n(-c2ccc(F)cc2)c1=O
D. CC(C)n1cc(C(=O)Nc2ccc(Oc3ncnc4c3CCN(C(=O)CCN3CCCC3)C4)c(F)c2)c(=O)n(-c2ccc(F)cc2)c1=O
E. CN1CCC(CN2CCc3c(ncnc3Oc3ccc(NC(=O)c4cn(CC5CCC5)c(=O)n(-c5ccc(F)cc5)c4=O)cc3F)C2)CC1
Parameters: sort_field (IC50), sort_dir (desc). Please, when replying, give the labels in the order that was requested. C, D, A, B, E

====

Test: Cmax in CAnN.Cg-Foxnlnu/CrlCrlj mouse plasma at 50 mg/kg, po single dose measured up to 24 hrs by liquid chromatography tandem mass spectrometry
Format: ADME, organism-based
Set-up: route oral, dose 50 mg/kg, time <=24
reported endpoint: Cmax (ng/mL)
# unit: ng/mL | format: bare number

Please give the measured Cmax for this compound: Cc1ccc(-n2c(=O)c(C(=O)Nc3ccc(Oc4ncnc5c4CCN(CC4CCN(C)CC4)C5)c(F)c3)cn(C3CCCC3)c2=O)nc1 5290

====

Assay: Tmax in CAnN.Cg-Foxnlnu/CrlCrlj mouse plasma at 50 mg/kg, po single dose measured up to 24 hrs by liquid chromatography tandem mass spectrometry
Assay type: ADME, organism-based
reported endpoint: Tmax (h)
# unit: h | format: bare number

Please give the measured Tmax for this compound: Cc1ccc(-n2c(=O)c(C(=O)Nc3ccc(Oc4ncnc5c4CCN(CC4CCN(C)CC4)C5)c(F)c3)cn(C3CCCC3)c2=O)nc1 1

====

Test system: CYP3A
Assay: Time dependent inhibition of CYP3A in human liver microsomes assessed as enzyme remaining activity using cocktail of probe CYP as substrate at 50 uM
Assay type: ADME
Details: probe cocktail of CYP probe substrates, read-out: Activity
reported endpoint: activity at 50 µM (%)
# unit: % | format: bare number

Given the entry Cc1ccc(-n2c(=O)c(C(=O)Nc3ccc(Oc4ncnc5c4CCN(CC4CCN(C)CC4)C5)c(F)c3)cn(C3CCCC3)c2=O)nc1 , what activity at 50 µM was observed with CYP3A? 51

====

Biological target: Tyrosine-protein kinase receptor UFO (Mus musculus)
Experiment: Inhibition of Axl in mouse BaF3 cells
pIC50: −log10 of the molar value.
reported endpoint: pIC50

Before answering, review these 3 worked examples.
# structure notation, system tested, readout number
measured = [
    ("CC(C)n1cc(C(=O)Nc2ccc(Oc3ncnc4c3CCN(C(=O)C3CCN(C)CC3)C4)c(F)c2)c(=O)n(-c2ccc(F)cc2)c1=O", "Tyrosine-protein kinase receptor UFO (Mus musculus)", 6.92),
    ("Cc1ccc(-n2c(=O)c(C(=O)Nc3ccc(Oc4ncnc5c4CCN(CC4CCN(C)CC4)C5)c(F)c3)cn(CC3CC3)c2=O)nc1", "Tyrosine-protein kinase receptor UFO (Mus musculus)", 7.47),
    ("CN1CCC(CN2CCc3c(ncnc3Oc3ccc(NC(=O)c4cn(C5CC5)c(=O)n(-c5ccc(F)cc5)c4=O)cc3F)C2)CC1", "Tyrosine-protein kinase receptor UFO (Mus musculus)", 6.11),
]

I. CC(C)n1cc(C(=O)Nc2ccc(Oc3ncnc4c3CCN(C3CCN(C)CC3)C4)c(F)c2)c(=O)n(-c2ccc(F)cc2)c1=O
II. CC(C)n1cc(C(=O)Nc2ccc(Oc3ncnc4c3CCN(C)C4)c(F)c2)c(=O)n(-c2ccc(F)cc2)c1=O
Quick check, higher pIC50 between I and II ? Identify your selection by its label. I

A. CC(C)n1cc(C(=O)Nc2ccc(Oc3ncnc4c3CCN(C3CCN(CC5CC5)CC3)C4)c(F)c2)c(=O)n(-c2ccc(F)cc2)c1=O
B. CC(C)n1cc(C(=O)Nc2ccc(Oc3ncnc4c3CC(=O)N4)c(F)c2)c(=O)n(-c2ccc(F)cc2)c1=O
Quick check, higher pIC50 between A and B ? Identify your selection by its label. A
(A: 7.70, B: 7.08)

====

Target: UniProtKB P33261
Sequence (P33261 whole entry): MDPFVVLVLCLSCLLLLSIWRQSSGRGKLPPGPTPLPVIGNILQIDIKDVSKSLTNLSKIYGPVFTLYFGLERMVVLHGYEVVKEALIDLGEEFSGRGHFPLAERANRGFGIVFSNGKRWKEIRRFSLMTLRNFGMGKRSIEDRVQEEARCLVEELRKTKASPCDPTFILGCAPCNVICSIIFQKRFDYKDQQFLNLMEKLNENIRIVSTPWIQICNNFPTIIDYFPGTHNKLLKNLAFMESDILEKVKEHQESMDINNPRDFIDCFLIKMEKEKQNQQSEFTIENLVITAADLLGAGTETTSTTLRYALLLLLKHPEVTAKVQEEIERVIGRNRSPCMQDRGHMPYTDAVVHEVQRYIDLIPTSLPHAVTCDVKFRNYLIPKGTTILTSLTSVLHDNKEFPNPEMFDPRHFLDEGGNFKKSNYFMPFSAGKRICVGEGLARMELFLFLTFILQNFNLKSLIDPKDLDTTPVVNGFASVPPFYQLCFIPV
Experiment: Time dependent inhibition of CYP2C19 in human liver microsomes assessed as enzyme remaining activity using cocktail of probe CYP as substrate at 50 uM
Assay type: ADME
Settings: probe cocktail of CYP probe substrates, read-out: Activity
reported endpoint: activity at 50 µM (%)
# unit: % | format: bare number

Please give the measured activity at 50 µM for this compound: Cc1ccc(-n2c(=O)c(C(=O)Nc3ccc(Oc4ncnc5c4CCN(CC4CCN(C)CC4)C5)c(F)c3)cn(C3CCCC3)c2=O)nc1 89

====

Organism: Homo sapiens
Assay: Ratio of IC50 for Mer (unknown origin) to IC50 for Axl (unknown origin)
reported endpoint: Ratio IC50

# structure notation, readout number
data = [
    ("CC(C)Cn1cc(C(=O)Nc2ccc(Oc3ncnc4c3CCN(CC3CCN(C)CC3)C4)c(F)c2)c(=O)n(-c2ccc(F)cc2)c1=O", 20),
    ("CC(C)n1cc(C(=O)Nc2ccc(Oc3ncnc4c3CCN(C(=O)CC3CCN(C)CC3)C4)c(F)c2)c(=O)n(-c2ccc(F)cc2)c1=O", 20),
    ("CC(C)n1cc(C(=O)Nc2ccc(Oc3ncnc4c3CCN(CC3CCN(C)CC3)C4)c(F)c2)c(=O)n(-c2ccc(F)cc2)c1=O", 20),
]

====

Molecular target: Tyrosine-protein kinase Mer (Mus musculus, UniProt Q60805)
Sequence (Q60805 whole entry): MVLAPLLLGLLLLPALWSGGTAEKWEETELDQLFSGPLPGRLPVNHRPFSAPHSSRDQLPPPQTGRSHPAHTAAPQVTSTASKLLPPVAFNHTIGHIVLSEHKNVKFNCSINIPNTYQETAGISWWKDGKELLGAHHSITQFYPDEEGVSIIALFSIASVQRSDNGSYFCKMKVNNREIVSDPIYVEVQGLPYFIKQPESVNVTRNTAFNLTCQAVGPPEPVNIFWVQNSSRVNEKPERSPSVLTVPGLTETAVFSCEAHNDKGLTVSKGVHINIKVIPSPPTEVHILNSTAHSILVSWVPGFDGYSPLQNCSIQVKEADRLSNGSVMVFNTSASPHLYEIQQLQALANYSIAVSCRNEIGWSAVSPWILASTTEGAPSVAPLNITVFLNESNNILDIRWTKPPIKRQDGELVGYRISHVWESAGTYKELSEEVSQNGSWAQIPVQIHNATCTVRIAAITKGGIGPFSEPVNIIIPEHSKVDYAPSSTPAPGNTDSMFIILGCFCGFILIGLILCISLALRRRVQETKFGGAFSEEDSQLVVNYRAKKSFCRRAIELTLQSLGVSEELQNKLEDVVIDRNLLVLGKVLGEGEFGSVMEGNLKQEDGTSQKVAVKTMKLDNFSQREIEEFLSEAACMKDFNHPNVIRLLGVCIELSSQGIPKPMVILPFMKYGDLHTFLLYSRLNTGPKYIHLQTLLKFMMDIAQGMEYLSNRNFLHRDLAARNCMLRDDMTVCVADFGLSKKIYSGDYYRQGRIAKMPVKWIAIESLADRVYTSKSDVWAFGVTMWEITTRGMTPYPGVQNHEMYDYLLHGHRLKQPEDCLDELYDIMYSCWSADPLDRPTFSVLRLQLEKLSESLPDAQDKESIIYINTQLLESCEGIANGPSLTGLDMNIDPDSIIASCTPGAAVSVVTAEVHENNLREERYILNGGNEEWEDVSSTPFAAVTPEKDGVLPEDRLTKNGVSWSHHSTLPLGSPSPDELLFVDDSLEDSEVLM
Assay: Inhibition of Mer in mouse BaF3 cells
reported endpoint: IC50 (nM)

# structure notation, IC50, nM
rows = [
    ("CC(C)n1cc(C(=O)Nc2ccc(Oc3ncnc4c3CCN(C3CCN(C)CC3)C4)c(F)c2)c(=O)n(-c2ccc(F)cc2)c1=O", 55),
    ("CC(C)n1cc(C(=O)Nc2ccc(Oc3ncnc4c3CCN(C3CCN(CC5CC5)CC3)C4)c(F)c2)c(=O)n(-c2ccc(F)cc2)c1=O", 79),
]

I. CC(C)n1cc(C(=O)Nc2ccc(Oc3ncnc4c3CN(C(=O)CC3CCN(C)CC3)C4)c(F)c2)c(=O)n(-c2ccc(F)cc2)c1=O
II. CN1CCC(CN2CCc3c(ncnc3Oc3ccc(NC(=O)c4cn(CC5CCC5)c(=O)n(-c5ccc(F)cc5)c4=O)cc3F)C2)CC1
Lower value of IC50 belongs to which: I or II ? Identify your selection by its label. I
